System: COLO 205
procedureText: NCI-60 five-dose assay (colon cancer)
Type: cell-based, human
settings: 48 h, SRB
reportedMetric: TGI
Write the numeric value and follow it with the unit.

| molecule | result |
| --- | --- |
| COc1cc(NC2=C(Cl)C(=O)c3nc(C)ccc3C2=O)cc(OC)c1 [AQQ5] | 3.08 µM |
| CCOc1ccc(NC2=C(Cl)C(=O)c3nc(C)ccc3C2=O)cc1 [AQQ3] | 3.64 µM |
| COc1ccccc1NC1=C(Cl)C(=O)c2nc(C)ccc2C1=O [AQQ1] | 3.87 µM |

Let's switch to this molecule now.
Request: Name the recorded TGI of CCOc1ccccc1NC1=C(Cl)C(=O)c2nc(C)ccc2C1=O [AQQ2] , assay system COLO 205.
Response: 3.66 µM

---

Recorded TGI by entry
System: MCF7
procedureText: NCI-60 five-dose assay (breast cancer)
Format: cell-based, human
settings: 48 h, SRB
Your answer is read as µM, so omit the unit and give the number.

| compound | endpointUnit | TGI |
| --- | --- | --- |
| CCOc1ccccc1NC1=C(Cl)C(=O)c2nc(C)ccc2C1=O [AQQ2] | µM | 3.65 |

Request: Give the reported TGI for this compound. CCOc1ccc(NC2=C(Cl)C(=O)c3nc(C)ccc3C2=O)cc1 [AQQ3]
Response: 3.82

Request: Give the reported TGI for this compound. COc1ccccc1NC1=C(Cl)C(=O)c2nc(C)ccc2C1=O [AQQ1]
Response: 4.49

Request: Give the reported TGI for this compound. COc1cc(NC2=C(Cl)C(=O)c3nc(C)ccc3C2=O)cc(OC)c1 [AQQ5]
Response: 5.33

---

Recorded GP (growth percentage) by entry
Tested on: UO-31
procedureText: NCI-60 one-dose screen (renal cancer)
Type: cell-based, human
settings: 10 µM single dose, 48 h
Your answer is read as %, so omit the unit and give the number.

| inputSmiles | systemTested | endpointUnit | number |
| --- | --- | --- | --- |
| COc1ccc(NC2=C(Cl)C(=O)c3nc(C)ccc3C2=O)cc1OC | UO-31 | % | 100.30 |
| CCOc1ccc(NC2=C(Cl)C(=O)c3nc(C)ccc3C2=O)cc1 | UO-31 | % | −65.05 |
| CCOc1ccccc1NC1=C(Cl)C(=O)c2nc(C)ccc2C1=O | UO-31 | % | −92.96 |
| COc1cc(NC2=C(Cl)C(=O)c3nc(C)ccc3C2=O)cc(OC)c1 | UO-31 | % | −94.65 |

Request: Give the reported GP (growth percentage) for this compound. `COc1ccccc1NC1=C(Cl)C(=O)c2nc(C)ccc2C1=O`
Response: −65.68

---

procedureText: In vitro metabolic stability
Type: in vitro ADME, rat (Sprague-Dawley)
settings: male, Sprague-Dawley, pH 7.4; Rat liver microsomes
Recorded microsomal CLint at 0.5 µM by entry
Write the numeric value and follow it with the unit.

| compound | microsomal CLint at 0.5 µM |
| --- | --- |
| COc1ccccc1NC1=C(Cl)C(=O)c2nc(C)ccc2C1=O [AQQ1] | 656 µL/min/mg |

Request: Give the reported microsomal CLint at 0.5 µM for this compound. CCOc1ccccc1NC1=C(Cl)C(=O)c2nc(C)ccc2C1=O [AQQ2]
Response: 501 µL/min/mg

---

System: SF-539
procedureText: NCI-60 one-dose screen (CNS cancer)
Assay type: cell-based, human
settings: 10 µM single dose, 48 h
Labelling field: enter y if recorded GP (growth percentage) is less than -40%. Enter n if it equals or exceeds that cut-off.

| inputSmiles | systemTested | labelClass |
| --- | --- | --- |
| CCOc1ccc(NC2=C(Cl)C(=O)c3nc(C)ccc3C2=O)cc1 | SF-539 | y |
| COc1cc(NC2=C(Cl)C(=O)c3nc(C)ccc3C2=O)cc(OC)c1 | SF-539 | n |
| COc1ccccc1NC1=C(Cl)C(=O)c2nc(C)ccc2C1=O | SF-539 | n |

Request: Please check: GP (growth percentage) for `COc1ccc(NC2=C(Cl)C(=O)c3nc(C)ccc3C2=O)cc1OC` , strictly under -40% or not?
Response: n

Request: Please check: GP (growth percentage) for `CCOc1ccccc1NC1=C(Cl)C(=O)c2nc(C)ccc2C1=O` , strictly under -40% or not?
Response: n

---

Tested on: NCI-H522
procedureText: NCI-60 five-dose assay (non-small cell lung cancer)
Format: cell-based, human
settings: Homo sapiens, 48 h, SRB
Recorded LC50 by entry
Your answer is read as µM, so omit the unit and give the number.

| inputSmiles | endpointUnit | LC50 |
| --- | --- | --- |
| COc1ccccc1NC1=C(Cl)C(=O)c2nc(C)ccc2C1=O | µM | 6.24 |

Request: Name the recorded LC50 of `CCOc1ccc(NC2=C(Cl)C(=O)c3nc(C)ccc3C2=O)cc1` , assay system NCI-H522.
Response: 5.94

Request: Name the recorded LC50 of `COc1cc(NC2=C(Cl)C(=O)c3nc(C)ccc3C2=O)cc(OC)c1` , assay system NCI-H522.
Response: 6.02

Request: Name the recorded LC50 of `CCOc1ccccc1NC1=C(Cl)C(=O)c2nc(C)ccc2C1=O` , assay system NCI-H522.
Response: 6.18

---

Test system: SF-268
procedureText: NCI-60 five-dose assay (CNS cancer)
Assay type: cell-based, human
settings: Homo sapiens, 48 h, SRB
reportedMetric: LC50 (concentration killing 50% of cells) (µM)
Your answer is read as µM, so omit the unit and give the number.

Please review the entries below; each comes with its answer.
| inputSmiles | number |
| --- | --- |
| COc1ccccc1NC1=C(Cl)C(=O)c2nc(C)ccc2C1=O | 6.06 |
| CCOc1ccc(NC2=C(Cl)C(=O)c3nc(C)ccc3C2=O)cc1 | 6.14 |
| CCOc1ccccc1NC1=C(Cl)C(=O)c2nc(C)ccc2C1=O | 5.87 |

Request: Give the reported LC50 (concentration killing 50% of cells) for this molecule. `COc1cc(NC2=C(Cl)C(=O)c3nc(C)ccc3C2=O)cc(OC)c1`
Response: 72.7

---

Recorded TGI by entry
Tested on: DU-145
procedureText: NCI-60 five-dose assay (prostate cancer)
Assay type: cell-based, human
settings: 48 h, SRB
Your answer is read as µM, so omit the unit and give the number.

Please review the entries below; each comes with its answer.
| inputSmiles | systemTested | TGI, µM |
| --- | --- | --- |
| CCOc1ccc(NC2=C(Cl)C(=O)c3nc(C)ccc3C2=O)cc1 | DU-145 | 3.13 |
| COc1ccccc1NC1=C(Cl)C(=O)c2nc(C)ccc2C1=O | DU-145 | 3.11 |
| CCOc1ccccc1NC1=C(Cl)C(=O)c2nc(C)ccc2C1=O | DU-145 | 2.99 |

Let's switch to this compound now.
Request: Give the reported TGI for this compound. `COc1cc(NC2=C(Cl)C(=O)c3nc(C)ccc3C2=O)cc(OC)c1`
Response: 3.55

---

Recorded LC50 by entry
Tested on: A498
procedureText: NCI-60 five-dose assay (renal cancer)
Format: cell-based, human
settings: Homo sapiens, 48 h, SRB
Your answer is read as µM, so omit the unit and give the number.

| inputSmiles | LC50 (µM) |
| --- | --- |
| COc1cc(NC2=C(Cl)C(=O)c3nc(C)ccc3C2=O)cc(OC)c1 | 33.8 |
| CCOc1ccc(NC2=C(Cl)C(=O)c3nc(C)ccc3C2=O)cc1 | 24.4 |
| COc1ccccc1NC1=C(Cl)C(=O)c2nc(C)ccc2C1=O | 13.1 |

Let's switch to this compound now.
Request: Name the recorded LC50 of `CCOc1ccccc1NC1=C(Cl)C(=O)c2nc(C)ccc2C1=O` , assay system A498.
Response: 34.8

---

Observed GI50 for RXF 393, reported per entry below.
Your answer is read as µM, so omit the unit and give the number.

Please review the entries below; each comes with its answer.
| inputSmiles | systemTested | reportedMetric | endpointUnit | number |
| --- | --- | --- | --- | --- |
| COc1cc(NC2=C(Cl)C(=O)c3nc(C)ccc3C2=O)cc(OC)c1 | RXF 393 | GI50 | µM | 1.63 |
| CCOc1ccc(NC2=C(Cl)C(=O)c3nc(C)ccc3C2=O)cc1 | RXF 393 | GI50 | µM | 1.57 |
| COc1ccccc1NC1=C(Cl)C(=O)c2nc(C)ccc2C1=O | RXF 393 | GI50 | µM | 1.42 |

Let's switch to this compound now.
Request: Name the recorded GI50 of `CCOc1ccccc1NC1=C(Cl)C(=O)c2nc(C)ccc2C1=O` , assay system RXF 393.
Response: 1.44

---

Tested on: UACC-62
procedureText: NCI-60 one-dose screen (melanoma)
Assay type: cell-based, human
settings: 10 µM single dose, 48 h
Description: The obtained quinolinequinones were submitted to NCI, Bethesda, USA, and, as per standard protocol of NCI, all compounds were evaluated for their antiproliferative activity at single-dose assay (10 µM concentration in DMSO) on a panel of 60 cancer cell lines derived from leukemia, non-small-cell lung, colon, CNS, melanoma, ovarian, renal, prostate, and breast, as per protocol. Tested compounds were added to the microtiter culture plates followed by incubation for 48 h at 37 °C. […]
Labelling field: enter 1 if recorded GP (growth percentage) is less than -40%. Enter -1 if it equals or exceeds that cut-off.

Consider the worked cases shown below.
| inputSmiles | labelClass |
| --- | --- |
| CCOc1ccccc1NC1=C(Cl)C(=O)c2nc(C)ccc2C1=O | -1 |
| COc1cc(NC2=C(Cl)C(=O)c3nc(C)ccc3C2=O)cc(OC)c1 | 1 |
| CCOc1ccc(NC2=C(Cl)C(=O)c3nc(C)ccc3C2=O)cc1 | 1 |
| COc1ccccc1NC1=C(Cl)C(=O)c2nc(C)ccc2C1=O | 1 |

Next, consider the following compound.
Request: Please check: GP (growth percentage) for `COc1ccc(NC2=C(Cl)C(=O)c3nc(C)ccc3C2=O)cc1OC` , strictly under -40% or not?
Response: -1
